target-or-test-system: GRP receptors on Swiss 3T3 cells (Mus musculus)
Construct: conducted in 24-well tissue culture plates (GIBCO) using Swiss 3T3 cells; endogenous in cells; host or cells: Murine Swiss 3T3 fibroblasts (intact confluent, quiescent cells)
Sequence (P21729 whole entry): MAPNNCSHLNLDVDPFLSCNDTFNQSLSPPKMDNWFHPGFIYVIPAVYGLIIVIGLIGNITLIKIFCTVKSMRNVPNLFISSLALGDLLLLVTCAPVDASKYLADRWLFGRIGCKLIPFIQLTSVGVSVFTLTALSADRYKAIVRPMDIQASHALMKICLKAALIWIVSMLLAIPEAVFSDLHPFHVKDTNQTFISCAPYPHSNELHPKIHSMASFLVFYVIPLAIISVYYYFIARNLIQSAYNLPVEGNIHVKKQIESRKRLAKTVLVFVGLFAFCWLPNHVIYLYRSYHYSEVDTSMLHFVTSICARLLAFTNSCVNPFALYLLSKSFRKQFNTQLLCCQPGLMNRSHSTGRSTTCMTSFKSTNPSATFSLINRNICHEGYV
assay-text: Receptor binding assay: displacement of 125I-GRP(14-27) on Swiss 3T3 cells
Design: species or system Murine
condition-set: association constant, 0.2 nM 125I-GRP(14-27), Swiss 3T3 cells, 37° C. 30 min; N.D.=NO DISPLACEMENT
Where a SMILES comes first, the peptide text is derived from it.
readout-name: Ka (nM⁻¹)
Form entry: value (nM⁻¹) — number only.

input: Endpoint output: Ka of COc1ccc(CCC(=O)N[C@@H](CCC(N)=O)C(=O)N[C@@H](Cc2c[nH]c3ccccc23)C(=O)N[C@@H](C)C(=O)N[C@H](C(=O)NCC(=O)N[C@@H](Cc2c[nH]cn2)C(=O)N[C@H](CN[C@@H](Cc2c[nH]c3ccccc23)C(N)=O)CC(C)C)C(C)C)cc1 [Peptide 27] (HELM PEPTIDE1{[COc1ccc(CCC(=O)[*:2])cc1].Q.W.A.V.G.H.[CC(C)C[C@@H](CN[C@@H](Cc1c[nH]c2ccccc12)C(N)=O)N[*:1]]}$$$$V2.0) . Value?
output: 0.013
